Tested on: M14 melanoma
Assay: NCI-60 one-dose screen, 48 h
Details: 10 µM unless noted
Compounds without any hit were thinned out: in the full panel of roughly 83,000, 20% have a hit. Active and inactive are the calls of the source. The calls were made as follows: active = growth percent below 10; inactive = the rest.
Outcomes: 1 (active), 0 (inactive)

MOLECULE	ASSIGNED_CLASS
COc1cc(/C=C2\SC(=S)N(/C=C/c3nc4ccccc4[nH]c3=O)C2=O)cc(OC)c1OC	0
S=C1SCN(Cc2cccs2)CN1Cc1cccs1	0
Cc1nc(Sc2nc3ccc([N+](=O)[O-])cc3s2)sc1C	0
CCCCCCCCCCCC1=NCCCN1CCCC	0
O=C1C=CC(=O)N1c1ccccc1	0
N#CCc1cccc2ccccc12	0
COc1cc(NC(=O)C2=C(C)NC(C)=C(C(=O)Nc3cc(OC)c(Cl)cc3OC)C2c2cccc([N+](=O)[O-])c2)c(OC)cc1Cl	0
Cc1ccccc1NC(=O)Cc1csc2[n+]1C(=O)/C(=C/c1ccc([N+](=O)[O-])cc1)S2	0
CCCCCCCCCCCC(=O)OC(C)C(=O)NCCCC (configuration not stated)	0
Cc1cc(I)nc2ccccc12	0
OCCOSCCO	0
CCSc1nc2ccccc2o1	0
CCCCC(C=O)(C=C=C(C)C)CC (configuration not stated)	0
Clc1ccc(Cc2nc3ccccc3s2)cc1	0
O=C(CCl)N1c2ccccc2Sc2c1ccc1ccccc21	0
CC(C)Nc1ccc(Nc2ccc(NC(C)C)cc2)cc1	0
O=C(Nc1ccc(Cl)c(Cl)c1)Nc1ccccc1O	0
CCOC(=O)NC(/C=C/c1ccccc1)NC(=O)OCC	0
O=[N+]([O-])/C(=C/c1ccccc1)c1ccccc1	0
CC1CC(C)(C)OB(OC(C)CC(C)(C)OB2OC(C)CC(C)(C)O2)O1 (configuration not stated)	1
Cc1nc([N+](=O)[O-])c(Sc2nncc(-c3ccccc3)n2)n1C	0
Cc1onc(-c2ccccc2)c1C(=O)N/N=C/c1cc(Cl)cc(Cl)c1O	0
CCOc1ccc2c(c1)/C(=C\C=C\C1CC(C)C3CC(OCC)CCC3N1CC)CC(C)N2CC (configuration not stated)	0
CCCC[n+]1c(/C=C\c2c(OC)cc(OC)cc2OC)ccc2ccccc21	1
CCCCCCCCCCCC[N+]1(CCCCCCCCCCCC)CCCC(C)C1 (configuration not stated)	1
COc1cccc2c1C(=O)c1c(O)c3c(c(O)c1C2=O)C[C@@](O)(C(=O)CO)C[C@@H]3OC1CC(OC(C)=O)C(OC(C)=O)C(C)O1 (some centres not stated)	1
N#CC1c2ccccc2C=CN1C(=O)CCCl (configuration not stated)	0
Cc1cc(C(N)=O)cc(C)c1C(=O)OCCCl	0
C1=C(c2ccccc2)c2ccccc2C1	0
CC(=O)c1c(O)c(C)c(O)c2c1OC1=CC(=O)C(C(C)=O)C(=O)C12C (configuration not stated)	0
CCN(CC)CCNC(Cc1ccccc1)c1ccc(OCc2ccccc2)cc1 (configuration not stated)	1
CCN(CC)CC(O)CNc1ccc(NCC2CO2)c2c1C(=O)c1ccccc1C2=O (configuration not stated)	1
CCC1CCCCN1C(=S)N/N=C(\C)c1ccccn1 (configuration not stated)	1
O=C1C(=O)c2cc([N+](=O)[O-])ccc2-c2ccccc21	1
CCCCC(CCc1ccc([N+](=O)[O-])cc1)(C(C)=O)C(=O)OCC (configuration not stated)	0
Nc1nc2ncc(CNc3ccc(C(=O)NC(CCC(=O)NC(CCC(=O)NC(CCC(=O)NC(CCC(=O)NC(CCC(=O)O)C(=O)O)C(=O)O)C(=O)O)C(=O)O)C(=O)O)cc3)nc2c(=O)[nH]1 (configuration not stated)	0
O/N=C1\c2ccccc2-c2ccc(F)cc21	0
O=[N+]([O-])CC(O)c1ccccc1 (configuration not stated)	0
O=C(/C(Cl)=N/O)c1ccc(-c2ccccc2)cc1	0
O=C(Nc1cccc(C(F)(F)F)c1)Oc1ccc(Cl)c2cccnc12	0
Cc1ccc(NC2=CC(=O)C(=O)c3ccccc32)cc1	1
CCCCCCCCCCCCSC(=N)N	1
c1csc(-c2[nH]nc3c2CCc2ccccc2-3)c1	0
CCCCCCCCCCCCCCCCSC(=NCC)NCC	1
c1ccc(C2NCCNC2c2ccccc2)cc1 (configuration not stated)	0
CCCCCCCCCCCC1N=C(N)N=C(N)N1c1cccc(Br)c1 (configuration not stated)	0
O=C1/C(=C/c2ccccc2)CCC/C1=C\c1ccccc1	0

----------
Tested on: DU-145 prostate
Experiment: NCI-60 one-dose screen, 48 h (100 = growth as untreated, 0 = no growth, -100 = all killed)
Details: 10 µM unless noted
This is part of a sample that, as a whole, favours compounds with a hit. Of some 83,000 tested, about 20% had one in any assay.
Entries and their growth values follow.
VALUE_TYPE: growth (%)

COMPOUND	VALUE_TYPE	MEAS_VALUE
S=c1[nH]c2cc(Cl)ccc2s1	growth	104
COc1cc(OC)c(/C=C/c2c3ccccc3cc[n+]2C)c(OC)c1	growth	36.5
COc1ccc2c(c1)c(CC(=O)O)c(C)n2C(=O)c1ccc(Cl)cc1	growth	107
CCOC(=O)c1c(C)[nH]c2ccc(O)cc12	growth	106
O=C/C=C/c1ccc([N+](=O)[O-])cc1	growth	102
O=C(Nc1ccc(Cl)c(Cl)c1)OCc1ccco1	growth	54.8
NCCCN(CCCN)CCCNCc1c2ccccc2c(CNCCCN(CCCN)CCCN)c2ccccc12	growth	100
C[C@@]1(CO)[C@H](O)CC[C@@]2(C)[C@H]1CC[C@H]1C[C@@H]3C[C@@]12CC[C@@]3(O)COC(=O)CN	growth	9.57
CCN1CCCC(Nc2cc(C)nc(/N=C(/N)Nc3ccc(Cl)c(Cl)c3)n2)C1 (stereo unspecified)	growth	30.3
O=C(c1ccccc1)N(CCCl)C(=O)N(CCCl)C(=O)c1ccccc1	growth	109
O=[N+]([O-])C=C(c1ccccc1)c1ccccc1	growth	87.7

----------
Tested on: HT29 colon
Assay: NCI-60 one-dose screen, 48 h
Settings: 10 µM unless noted
The panel holds about 83,000 compounds, 20% with a hit somewhere; the sample as a whole holds those more often. Calls of active or inactive are those of the source. Rule for the calls: active = growth percent below 10; inactive = the rest. *1 amine or outer side, *2 acyl side, *3 side chain or, on linkers, in order; H or OH if unused. Where a SMILES comes first, the peptide text is derived from it. Bridges are numbered along the chain shown (N, C = ends). Roman numbers before positions name the chains, in order. [ ]: non-standard residue; d: D form. The star is where a group is joined. Actinocin(1to9) = Cc1c2oc3c(C)ccc(C(=O)[*:2])c3nc-2c(C(=O)[*:1])c(N)c1=O; X5 = CCC(=O)CC1CC(C)CC(C(=O)[*:2])N1[*:1]; NMeV = CN[CH](C(=O)O)C(C)C; X4 = CCCCCCCCC(C)C(=O)*; Aib = CC(C)(N)C(=O)O; X6 = CC(CN(C)CCO)N*; Sar = CNCC(=O)O
Outcomes: class 1 (active), class 0 (inactive)

MOLECULE	ASSIGNED_CLASS
CCOC(=O)C1(C)CCCC1N (stereo not drawn)	class 0
Cn1c(-c2ccccc2)c(/C=C/C2=[N+](C)c3ccccc3C2(C)C)c2ccccc21	class 1
CC1(C)N=c2cc3c(cc2N1c1ccc(Cl)cc1)=Nc1ccccc1N3c1ccc(Cl)cc1	class 0
CCC1C[N+]2=C(c3cc(OC)c(OC)cc3CC2)c2c1cc1n2CCc2cc(OC)c(OC)cc2-1 (stereo not drawn)	class 0
O=C(c1ccccc1)N(CCCl)C(=O)N(CCCl)C(=O)c1ccccc1	class 0
O=C(CCl)N1c2ccccc2Sc2c1ccc1ccccc21	class 0
CCC(C)C1NC(=O)C(NC(=O)c2c3nc4c(C(=O)NC5C(=O)NC(C(C)CC)C(=O)N6CCCC6C(=O)N(C)CC(=O)N(C)C(C(C)C)C(=O)OC5C)ccc(C)c4oc-3c(C)c(=O)c2N)C(C)OC(=O)C(C(C)C)N(C)C(=O)CN(C)C(=O)C2CCCN2C1=O (stereo not drawn) (I: TIP[Sar][NMeV] / II: TIP[Sar][NMeV]; ester I:1-I:C, II:1-II:C; linker I:N-II:N via Actinocin(1to9); configuration not given here)	class 1
CCOC(=O)/C(=C\c1ccc2ccccc2c1)P(=O)(OCC)OCC	class 1
NC(CS/C(Cl)=C/Cl)C(=O)O (stereo not drawn)	class 0
CCCCCCCCC(C)C(=O)N1CCCC1C(=O)N1C(CC(=O)CC)CC(C)CC1C(=O)NC(C)C(=O)NC(C)(C)C(=O)NC(C)(C)C(=O)NC(C(=O)NC(C)C(=O)NC(C)(C)C(=O)NC(C)(C)C(=O)NC(C)CN(C)CCO)C(C)CC (stereo not drawn) (X4-P[X5]A[Aib][Aib]IA[Aib][Aib]-X6; configuration not given here)	class 1
CC(C)=C1C=C2CC[C@@H]3[C@](C)(CCC[C@@]3(C)C(=O)O)[C@H]2CC1	class 0
CCCCCCCCCCCC[n+]1ccccc1 (tested in a mixture with another compound)	class 1
CC(=O)C1Cc2ccccc2C1=O (stereo not drawn)	class 0
CC(C)=CCCC(C)C1=C(O)C(=O)C(C)=CC1=O (stereo not drawn)	class 0
CC(C)(C)c1ccc(O)c(Br)c1	class 0
CN(C)CCN(C)CC(C)(C)C(=O)/C=C/c1ccc(Cl)c(Cl)c1	class 1
Cc1c(O)ccc(SC#N)c1C	class 0
Oc1c(C(Nc2ccccc2)c2ccccc2)ccc2cccnc12 (stereo not drawn)	class 0
